tested on: Hs-578T; test: NCI tumour cell line growth inhibition, 48 h
Active and inactive are the calls of the source. Rule as the data show it: active = GI50 up to about 1.1 µM and inactive = higher.
Field 'call' accepts active, inactive

Query: Tell me the recorded outcome of this test for O=C1N/C(=N/N=C\C(O)C(O)C(O)C(O)CO)N/C1=C\c1ccc(Cl)cc1 (centres undefined) .
Reply: inactive

Query: Entry to check: CC(C)CCC(=O)c1ccoc1 [PERILLAKETONE]
Reply: inactive

Query: Item: COc1ccc(NC(=O)/C(=N\NC(=O)C[n+]2ccccc2)c2c(O)c3ccc(O)cc3oc2=O)c([N+](=O)[O-])c1
Reply: inactive

Query: Another compound to look at: O=C(CCC(=O)c1ccsc1)c1ccsc1
Reply: inactive

New cases:
Query: Please let me know the test result on file for Clc1cc(N/N=C(/c2ccccc2)c2ncccn2)ncn1 .
Reply: inactive

Query: Now try COC1N(C2CC(O)C(CO)O2)C(=O)NC(=O)C1(F)Br (centres undefined) .
Reply: inactive

Query: // query: c1ccc(/N=C2\S/C(=N\C3CCCCC3)N(C3CCCCC3)\C2=N/c2ccccc2)cc1
Reply: inactive

Query: // same read-out, input: Cc1ccc(C(=O)/C=C(O)/C(O)=C/C(=O)c2ccc(C)cc2C)c(C)c1
Reply: inactive

Query: Same again, this time with C/C=C(\C)c1cc(=O)c2c(C)cc3c(c2o1)C(OC)(OC(C)=O)c1c(O)c(C2CC(C)(N(C)C)C(OC(C)=O)C(C)O2)cc(C2CC(N(C)C)C(OC(C)=O)C(C)O2)c1C3=O (centres undefined)
Reply: inactive

Query: Another compound to look at: Nc1ncnc2c1N=C(c1ccccc1)CC(c1ccccc1)N2 (centres undefined)
Reply: inactive

Query: Same question for c1ccc2nn(C3CCCO3)nc2c1 (centres undefined) please.
Reply: inactive

Query: # repeat for O=C(CCc1ccccc1)On1c(-c2ccccc2)nc2ccccc2c1=S
Reply: inactive

Query: Query COc1ccc(/N=N/C(=O)NC(CC(C)C)C(=O)NC(Cc2ccccc2)C(=O)O)cc1 (centres undefined) next
Reply: inactive

---

tested on: MOLT-4; assay: NCI tumour cell line growth inhibition, 48 h
Activity calls are given as the source filed them. Cut-off read from the data, not from the text of the source: active = GI50 up to about 1.1 µM and inactive = higher.
Parameter call: string, one of true = active, false = inactive

Query: How did this test come out for CC(C)=C1C(=O)C[C@]2(C)C/C=C(\C)CC/C=C(\C)CC[C@@H]12 ?
Reply: false

Consider the additional compound presented here.
Query: How was Cc1cc(N(CCC#N)S(=O)(=O)c2ccccc2)ccc1/C=C1N=C(/C=C/c2ccccc2)OC\1=O classified in this test?
Reply: false

---

tested on: M14; test: NCI tumour cell line growth inhibition, 48 h
Active and inactive are the calls of the source. Rule as the data show it: active = GI50 up to about 1.1 µM and inactive = higher.
EXPERIMENTAL_ENDPOINT: GI50

Solved entries:
Query: For the molecule shown here, O=C(CCCN1CCC(Nc2ccc(F)cc2)(c2nnnn2C2CCCCC2)CC1)c1ccc(F)cc1 , give the reported GI50.
Reply: 16.7 µM (inactive)

Query: Ok, now O=C(/C=C1\Sc2ccccc2N=C1CC(=O)c1ccccc1)c1ccccc1
Reply: 6.14 µM (inactive)

Query: // repeat for O=C1NCN(c2ccccc2)C12CCN(CCCSc1ccc(F)cc1)CC2 and report
Reply: 6.25 µM (inactive)

Query: // query: O=S(=O)(c1ccccc1)n1c(C(O)c2ccccc2)cc2ccccc21 (stereo not given)
Reply: 14.9 µM (inactive)

Query: Next up: CC(C)=C1C(=O)C[C@]2(C)C/C=C(\C)CC/C=C(\C)CC[C@@H]12
Reply: 7.87 µM (inactive)

Quick one: give me GI50 for each item below, same order please.
1. C[C@@H]1[C@H](c2ccccc2)O[B-]2(c3ccc(Br)cc3)OC(=O)C[N+]12C (stereo not given in full)
2. CC(=N/N=C/c1ccccn1)/C(C)=N/N=C(C)/C(C)=N/N=C(C)/C(C)=N/N=C(C)/C(C)=N\N=C\c1ccccn1
3. CCCCC(C(=O)CCC(=O)Nc1ccc(Cl)c(Cl)c1)C(=O)C(C)C (stereo not given)
4. COC(=O)c1ccccc1CC(Cc1ccc2c(c1)CCC2)C(=O)OC (stereo not given)
5. CC(=O)Nc1cc2nc3n(c2cc1C)CCC3OC(C)=O (stereo not given)

Reply:
1: > 100 µM (inactive); 2: > 100 µM (inactive); 3: 82.8 µM (inactive); 4: > 100 µM (inactive); 5: > 100 µM (inactive)
